Cited source: PubChem BioAssay (EPA / NIEHS)

# Read-out: Vascular cell adhesion molecule 1 (VCAM1), VCAM1 (gene 7412)
# protocol: BSK_CASM3C_VCAM1: BioMAP Diversity Plus: CASM3C Assay for Vascular cell adhesion molecule 1 (VCAM1) Biomarker Activity (AID 2283055);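 also: VCAM-1 protein level quantified by ELISA on the cells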
# stated-conditions: primary human coronary artery smooth muscle cells; actives raise or lower the signal
Calls of active or inactive are those of the source. The calls were made as follows: active = hit-call score of the fitted dose curve at least 0.9, where 1 is the maximum; inactive = score below 0.9.
Hello, when you answer, please use one of the following outcomes: Y = active, N = inactive

Example entries begin here.
INSERT INTO results (molecule, assigned_category) VALUES
  ('CCCCc1nc2cccnc2n1Cc1ccc(-c2ccccc2-c2nnn[nH]2)cc1', 'N'),
  ('CSc1ccc(Oc2ccc(S(N)(=O)=O)cc2CN(C)C)cc1C', 'N'),
  ('C/C=C/c1ccc(OC)cc1', 'N'),
  ('C=CCCCCCCCCCCCC', 'N'),
  ('CCN(CC)CCOc1ccc(C(=C(Cl)c2ccccc2)c2ccccc2)cc1', 'Y'),
  ('CC(C)(C)c1ccccc1', 'N');

[ask] GET /call?item= CCCCCCC(CCCCCCCCCCC(=O)OCC(COC(C)=O)OC(C)=O)OC(C)=O (centres undefined) returns the recorded outcome of this test.
[reply] N

[ask] GET /call?item= CC(=O)OCC(COC(C)=O)OC(C)=O returns the recorded outcome of this test.
[reply] N

[ask] GET /call?item= CC(=O)S[C@H](C(=O)N[C@H]1Cc2ccccc2[C@H]2CCC[C@@H](C(=O)O)N2C1=O)C(C)C returns the recorded outcome of this test.
[reply] N
